Here, each record is paired with measured normalized growth data.
experiment: chemical genetic growth profiling, strain panel (AID 1159580);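 further: tested at 20 µM; growth read once vehicle control cultures reached saturation at 30 °C; 1 = growth at the plate median or of vehicle wells; lower values mean less growth of the strain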; conditions: S. cerevisiae deletion strains, growth OD, locus YOR144C, strain elg1, active compounds read low
The whole screen tested about 5,500 compounds, of which about 2,000 (36%) were called active. Not shown: some 18% with an inconclusive outcome. Some of the results follow.
VALUE TYPE: normalized growth

> print(dat)
                                   compound         value.type  observed.result
1       CCS(=O)(=O)CCn1c([N+](=O)[O-])cnc1C  normalized growth             1.01
2  CCCCC(=O)N(Cc1ccc(-c2ccccc2-c2nn[nH]n2)cc1)[C@H](C(=O)O)C(C)C  normalized growth            0.988
3  CCOc1nc2cccc(C(=O)OC(C)OC(=O)OC3CCCCC3)c2n1Cc1ccc(-c2ccccc2-c2nn[nH]n2)cc1 (stereo not given)  normalized growth            0.993
4  COc1cc(OC)c2c(c1Cl)OC1(C2=O)C(O)=CC(=O)CC1C (stereo not given)  normalized growth            0.996
5  CC1=C2[C@](C)(C=CC1=O)C[C@H](O)[C@H]1[C@H](C)C(=O)O[C@]21C  normalized growth             1.02

---

test: chemical genetic growth profiling, strain panel (AID 1159580);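 further: tested at 20 µM; growth read once vehicle control cultures reached saturation at 30 °C; 1 = growth at the plate median or of vehicle wells; lower values mean less growth of the strain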; settings: S. cerevisiae deletion strains, growth OD, locus YML032C, strain rad52, active compounds read low
Hit rate of the full screen: of about 5,500 compounds, about 2,000 (36%) were called active. Not shown: some 18% with an inconclusive outcome. The list shows a part of the results.

COMPOUND	normalized growth
CCOC(=O)C1=C(C)NC(C)=C(C(=O)OC)C1c1cccc([N+](=O)[O-])c1 (configuration not stated)	1.02 (inactive)
CSCCC(NC=O)C(=O)NC(CC(C)C)C(=O)NC(Cc1ccccc1)C(=O)O (configuration not stated)	0.998 (inactive)
Cc1ncc([N+](=O)[O-])n1CCO	1.01 (inactive)
COC(=O)C[C@H]1C(C)(C)C(OC(C)=O)[C@]2(O)C=C3C4CC(=O)O[C@@H](c5ccoc5)[C@]4(C)CCC3[C@@]1(C)C2=O (some centres not stated)	1.01 (inactive)
O=c1n(CCCN2CCN(c3cccc(Cl)c3)CC2)nc2ccccn12	0.979 (inactive)
CC1=C2[C@](C)(C=CC1=O)C[C@H](O)[C@H]1[C@H](C)C(=O)O[C@]21C	1.05 (inactive)
OCCN1CCN(CCCN2c3ccccc3Sc3ccc(Cl)cc32)CC1	0.961 (inactive)
C=C(C)c1cc2cc(C(C)=O)c(O)cc2o1	0.942 (inactive)
CC(=O)O[C@@H]1CC2C(C)(C)C(=O)[C@@H]3O[C@@H]3[C@]2(C)C2CC[C@]3(C)C(=CC(=O)O[C@H]3c3ccoc3)[C@@]21C (some centres not stated)	0.962 (inactive)
O=C1c2ccc(O)c(O)c2C(=O)c2c(O)ccc(O)c21	1.01 (inactive)
Cn1cnc([N+](=O)[O-])c1Sc1ncnc2nc[nH]c12	0.989 (inactive)
CC(=O)OCC(=O)[C@@]1(O)CCC2C3CCC4=CC(=O)CC[C@]4(C)[C@@]3(F)[C@@H](O)C[C@@]21C (some centres not stated)	0.992 (inactive)
Cn1c([N+](=O)[O-])cnc1COC(N)=O	0.984 (inactive)
c1ccc2c(c1)[nH]c1cnccc12	1.02 (inactive)
COc1cc2ccc(=O)oc2c2ccoc12	0.737 (active)
Cn1nnnc1SCC1=C(C(=O)O)N2C(=O)C(NC(=O)C(OC=O)c3ccccc3)C2SC1 (configuration not stated)	1.04 (inactive)
NCCS	1.02 (inactive)
C[C@]12CCC3C(CC[C@H]4C[C@@H](O)CC[C@]34C)C1CCC2=O (some centres not stated)	0.744 (active)
C[C@]12C=CC(=O)C=C1CCC1C2C(=O)C[C@@]2(C)C1CC[C@]2(O)C(=O)CO (some centres not stated)	1.01 (inactive)
Cn1c(=O)[nH]c(=O)c2[nH]cnc21	0.974 (inactive)
CC(C(=O)O)c1ccc(N2Cc3ccccc3C2=O)cc1 (configuration not stated)	0.975 (inactive)
COc1cc(O)c(C(C)=O)c(OC)c1	1.01 (inactive)

---

assay: chemical genetic growth profiling, strain panel (AID 1159580);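 further: tested at 20 µM; growth read once vehicle control cultures reached saturation at 30 °C; 1 = growth at the plate median or of vehicle wells; lower values mean less growth of the strain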; details: S. cerevisiae deletion strains, growth OD, locus YJL166W, strain qcr8
Screen size: about 5,500 compounds; about 2,000 (36%) were called active. Inconclusive results (about 18%) are left out. No stated cut-off is given here; in the data, active means normalized growth mostly below about 0.91 (no sharp cut-off); inconclusive means no clear call, values can overlap the other calls; inactive means mostly above about 0.92. This is one part of the list.
Outcomes: active, inactive

> print(dat)
                                   compound     label
1  CCCC(=O)Nc1ncnc2c1ncn2C1O[C@@H]2COP(=O)(O)O[C@H]2[C@H]1OC(=O)CCC (some centres undefined)  inactive
2  COC(=O)C[C@H]1C(C)(C)[C@@H](OC(C)=O)[C@@H]2CC3C4CC(=O)O[C@@H](c5ccoc5)[C@]4(C)CCC3[C@@]1(C)C2=O (some centres undefined)  inactive
3  CC(=O)OCC(=O)[C@@]1(O)CCC2C3CCC4=CC(=O)CC[C@]4(C)[C@@]3(F)[C@@H](O)C[C@@]21C (some centres undefined)  inactive
4  Cn1nnnc1SCC1=C(C(=O)O)N2C(=O)C(NC(=O)C(OC=O)c3ccccc3)C2SC1 (centres undefined)  inactive
5            C=C(C)c1cc2cc(C(C)=O)c(O)cc2o1  inactive
6  CC(C(=O)O)c1ccc(N2Cc3ccccc3C2=O)cc1 (centres undefined)  inactive
7  C=C1CC2C(CCC3(C)C(=O)CCC23)C2(C)C=CC(=O)C=C12 (centres undefined)  inactive
8  C[C@]12CCC3C(CC[C@H]4CC(=O)CC[C@]34C)C1CCC2=O (some centres undefined)    active
9  CSCCC(NC=O)C(=O)NC(CC(C)C)C(=O)NC(Cc1ccccc1)C(=O)O (centres undefined)  inactive

---

test: chemical genetic growth profiling, strain panel (AID 1159580);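 further: tested at 20 µM; growth read once vehicle control cultures reached saturation at 30 °C; 1 = growth at the plate median or of vehicle wells; lower values mean less growth of the strain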; settings: S. cerevisiae deletion strains, growth OD, locus YOR061W, strain CKA2
The campaign covered roughly 5,500 compounds. About 2,000 (36%) were called active. Another 18% or so got no clear call; they are omitted. No stated cut-off is given here; in the data, active means normalized growth mostly below about 0.91 (no sharp cut-off); inconclusive means no clear call, values can overlap the other calls; inactive means mostly above about 0.92. Some of the results follow.
Outcomes: yes (1) (active), no (0) (inactive)

COMPOUND	LABEL
O=C(CCCN1CC=C(n2c(=O)[nH]c3ccccc32)CC1)c1ccc(F)cc1	no (0)
C[C@]12CCC3C(CC[C@H]4C[C@@H](O)CC[C@]34C)C1CCC2=O (stereo not given in full)	no (0)
CCCCCc1ccc(S(=O)(=O)Nc2ncc(C)cc2Br)cc1	no (0)
COC(=O)c1ccc(Oc2c(C(F)(F)F)oc3cc(O)ccc3c2=O)cc1	no (0)
CCC1(c2ccccc2)OC(c2cc(Cl)cc(Cl)c2O)Nc2ccccc21 (stereo not given)	yes (1)
CCCCCc1ccc(-c2nc(SCC(C)=O)n[nH]2)cc1	no (0)
CC(Oc1ccc(Cl)cc1Cl)C(=O)NNC(=S)Nc1ccccc1 (stereo not given)	no (0)
CCCCCN=C(N)N/N=C\c1c[nH]c2ccc(OC)cc12	no (0)
NNC(=O)COc1ccc(C2SCCS2)cc1	yes (1)
O=C(Oc1ccc(C2SCCS2)cc1)c1cccs1	no (0)
CCN(CC)CCNC(=O)COc1ccc(OC)cc1	no (0)
N#CC(C#N)=NNc1cc(C(F)(F)F)ccc1OCC(F)(F)F	no (0)
COc1cc2ccc(=O)oc2c(OC)c1OC	no (0)
O=C(NCc1ccc(F)c(Cl)c1)Nc1csc([N+](=O)[O-])c1	no (0)
N#C/C(=N/Nc1ccc(C(F)(F)F)cc1)C(=O)C1CC1	no (0)
N#C/C(=C\c1ccc(C(F)(F)F)cc1)c1ccc(O)cc1	yes (1)
CC(=O)O[C@@H]1CC2C(C)(C)C(=O)[C@@H]3O[C@@H]3[C@]2(C)C2CC[C@]3(C)C(=CC(=O)O[C@H]3c3ccoc3)[C@@]21C (stereo not given in full)	no (0)
O=C(Nc1ccc(Cl)cc1)c1csc([N+](=O)[O-])c1	no (0)
O=C1c2ccc(O)c(O)c2C(=O)c2c(O)ccc(O)c21	no (0)
Cc1nc(C(F)(F)F)ccc1-c1nnc(SC(=O)c2ccc(Cl)cc2)o1	yes (1)
C[C@H]1C(=O)O[C@@H]2CCN3CC=C(COC(=O)[C@](C)(O)[C@]1(C)O)[C@H]23	no (0)
Nc1ncnc2c1ncn2[C@@H]1O[C@H](CO)[C@@H](O)[C@@H]1O	no (0)
COc1cc2ccc(=O)oc2c2ccoc12	no (0)
O=c1ccc2cc(O[C@@H]3O[C@H](CO)[C@@H](O)[C@H](O)[C@H]3O)c(O)cc2o1	no (0)
COc1cc(O)c(C(=O)O)c(O)c1	no (0)
COC(=O)C[C@H]1C(C)(C)C(OC(C)=O)[C@]2(O)C=C3C4CC(=O)O[C@@H](c5ccoc5)[C@]4(C)CCC3[C@@]1(C)C2=O (stereo not given in full)	no (0)
COc1ccc(Cc2nccc3cc(OC)c(OC)cc23)cc1OC	no (0)
COc1ccc2ccc(=O)oc2c1CC=C(C)C	no (0)
Cn1c([N+](=O)[O-])cnc1COC(N)=O	no (0)
CCNc1nc(Cl)nc(NC(C)C)n1	no (0)
COc1ccc2c(=O)c(CC(=O)O)coc2c1	no (0)
Cc1oc(-c2ccc(Cl)cc2)cc1C(=O)N1CCN(c2ccc(C(F)(F)F)cn2)CC1	no (0)
CCOC(=O)C(O)(c1ccc(NC(=O)Nc2ccc(Cl)cc2)cc1)C(F)(F)F (stereo not given)	no (0)
C[C@]12CCC3C(CC[C@H]4C[C@@H](Cl)CC[C@]34C)C1CCC2=O (stereo not given in full)	no (0)
C/C=C(\C)C(=O)OC1[C@@H]2C=C3C4CC(=O)O[C@@H](c5ccoc5)[C@]4(C)CCC3[C@@](C)(C2=O)[C@@H](C(O)C(=O)OC)C1(C)C (stereo not given in full)	no (0)
Cc1cc(C)nc(NS(=O)(=O)c2ccc(N)cc2)n1	no (0)
N#C/C(=C\c1ccc(O)cc1)C(=O)O	no (0)
COc1cc(OC)c(-c2c(OC)cc(OC)cc2OC)c(OC)c1	no (0)
Oc1ccc(-n2nnnc2SCc2ccc(OC(F)(F)F)cc2)cc1	no (0)
O=c1[nH]c2ccccc2n1C1CCN(CCCC(c2ccc(F)cc2)c2ccc(F)cc2)CC1	no (0)
COc1cc2ccc(=O)oc2cc1O	no (0)
CN(C)c1nc(=S)ss1	yes (1)
Nc1ccc(N2CCN(c3ccc(C(F)(F)F)cn3)CC2)nc1	no (0)
CC1=C(C(=O)O)N2C(=O)[C@@H](NC(=O)[C@H](N)C3=CCC=CC3)C2SC1 (stereo not given in full)	no (0)
Cc1cc(O)c2c(c1O)C(=O)c1c(O)cc(C)c(O)c1C2=O	no (0)
